target: Hexokinase-4 (Homo sapiens, UniProt P35557); assay: Activation of His-tagged recombinant glucokinase expressed in Escherichia coli using [14C]-glucose substrate by […]
Sequence (P35557 whole entry): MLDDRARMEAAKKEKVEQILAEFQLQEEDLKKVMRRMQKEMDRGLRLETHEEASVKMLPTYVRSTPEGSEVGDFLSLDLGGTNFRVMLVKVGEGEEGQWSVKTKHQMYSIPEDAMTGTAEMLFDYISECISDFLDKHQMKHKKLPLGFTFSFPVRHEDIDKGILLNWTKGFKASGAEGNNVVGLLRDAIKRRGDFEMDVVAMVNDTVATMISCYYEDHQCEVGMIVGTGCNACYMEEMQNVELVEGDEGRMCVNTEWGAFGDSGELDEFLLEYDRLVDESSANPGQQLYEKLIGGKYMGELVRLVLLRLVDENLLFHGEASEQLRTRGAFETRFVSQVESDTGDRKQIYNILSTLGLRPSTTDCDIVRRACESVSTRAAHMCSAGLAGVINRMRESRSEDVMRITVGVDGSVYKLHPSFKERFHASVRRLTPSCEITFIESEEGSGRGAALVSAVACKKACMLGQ
pEC50: −log10 of the molar value.
// f strictly below 7 in pEC50; t otherwise

COC[C@H](C)Oc1cc(O[C@@H](C)Cc2ccc(Cl)o2)cc(C(=O)Nc2ccc(C(=O)O)cn2)c1: t
COC[C@H](C)Oc1cc(O[C@@H](C)Cc2ccc(F)cc2)cc(C(=O)Nc2ccc(C(=O)O)cn2)c1: t

Ask: Does "COC[C@H](C)Oc1cc(Oc2ccc(OC)cc2)cc(C(=O)Nc2ccc(C(=O)O)cn2)c1" have a reported pEC50 of at least 7?
Reply: t

Ask: Subsequent entry: "COC[C@H](C)Oc1cc(Oc2cccc(F)c2)cc(C(=O)Nc2ccc(C(=O)O)cn2)c1"
Reply: f

Ask: Can you check "COCC(C)(C)Oc1cc(O[C@@H](C)Cc2ccccc2)cc(C(=O)Nc2ccc(C(=O)O)cn2)c1" next?
Reply: f

====

assay: in vivo; conditions: CR-Han Wistar, rat, iv, 1 mg/kg
Classification field: 1.0 = clearance at or over 0.07 L/h/kg; 0.0 = clearance under 0.07 L/h/kg.

CC(C)Oc1cc(O[C@@H](C)Cc2ccccc2)cc(C(=O)Nc2ccc(C(=O)O)cn2)c1: 1.0
COC[C@H](C)Oc1cc(Oc2ccc(OC)cc2)cc(C(=O)Nc2ccc(C(=O)O)cn2)c1: 1.0

Ask: Could you verify whether the entry "CC(C)Oc1cc(OC2Cc3ccccc3C2)cc(C(=O)Nc2ccc(C(=O)O)cn2)c1" shows clearance of no less than 0.07 L/h/kg?
Reply: 1.0

Ask: Note, next up: "COC[C@H](C)Oc1cc(OC[C@H](C)c2ccccc2)cc(C(=O)Nc2ccc(C(=O)O)cn2)c1"
Reply: 1.0

Ask: Then this compound: "COC[C@H](C)Oc1cc(O[C@@H](C)Cc2ccc(Cl)o2)cc(C(=O)Nc2ccc(C(=O)O)cn2)c1"
Reply: 1.0

Ask: Same read-out for "COC[C@H](C)Oc1cc(Oc2ccc(Cl)cc2)cc(C(=O)Nc2ccc(C(=O)O)cn2)c1" ?
Reply: 0.0

Ask: # repeat for "COC[C@H](C)Oc1cc(Oc2ccc(S(C)(=O)=O)cc2)cc(C(=O)Nc2ccc(C(=O)O)cn2)c1"
Reply: 1.0

Ask: Now the compound "COC[C@H](C)Oc1cc(O[C@@H](C)Cc2ccccc2)cc(C(=O)Nc2ccc(C(=O)O)cn2)c1"
Reply: 1.0

Ask: Please answer likewise for "COC[C@H](C)Oc1cc(O[C@@H](C)Cc2cc(F)cc(F)c2)cc(C(=O)Nc2ccc(C(=O)O)cn2)c1"
Reply: 0.0

Ask: Also check "COC[C@H](C)Oc1cc(O[C@@H](C)Cc2ccccc2OC)cc(C(=O)Nc2ccc(C(=O)O)cn2)c1"
Reply: 1.0

Ask: Let us now turn to "CC(C)Oc1cc(O[C@@H](C)c2ccccc2)cc(C(=O)Nc2ccc(C(=O)O)cn2)c1"
Reply: 0.0

====

test: Solubility of the compound; assay type: physicochemical
observation_type: solubility
Note to self: number, then unit, no commentary.

Ask: Consider the molecule shown here: "COC[C@H](C)Oc1cc(Oc2cc(F)cc(F)c2)cc(C(=O)Nc2ccc(C(=O)O)cn2)c1" What is its recorded solubility?
Reply: 841 µM

Attribution: ChEMBL document CHEMBL1777741
